molecular target: human serum albumin (Homo sapiens); assay: Human serum albumin (HSA) binding, chromatographic; type: in vitro ADME
Sequence (P02768 25-609): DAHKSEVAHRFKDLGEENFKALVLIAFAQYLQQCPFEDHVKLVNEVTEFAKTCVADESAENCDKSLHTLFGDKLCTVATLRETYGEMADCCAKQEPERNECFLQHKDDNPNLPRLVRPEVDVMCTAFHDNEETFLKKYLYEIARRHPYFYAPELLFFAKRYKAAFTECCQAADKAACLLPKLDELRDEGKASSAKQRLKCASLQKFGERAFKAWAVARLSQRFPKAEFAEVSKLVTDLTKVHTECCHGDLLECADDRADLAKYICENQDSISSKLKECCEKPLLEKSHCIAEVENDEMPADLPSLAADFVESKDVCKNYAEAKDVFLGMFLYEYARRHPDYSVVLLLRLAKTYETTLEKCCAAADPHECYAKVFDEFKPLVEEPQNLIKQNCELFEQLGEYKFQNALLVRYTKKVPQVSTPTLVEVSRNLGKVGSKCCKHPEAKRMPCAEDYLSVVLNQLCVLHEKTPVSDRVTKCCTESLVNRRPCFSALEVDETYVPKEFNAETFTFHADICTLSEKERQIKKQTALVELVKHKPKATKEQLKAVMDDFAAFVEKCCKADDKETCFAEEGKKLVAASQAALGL
Parameter: HSA Binding
Could you write the number and then its unit?

- Compound: "CC(C)Cc1n[nH]c2c1C(c1ccc(F)cc1)N(c1ccc3c(c1)OCO3)C2=O (stereo not drawn)"
  Assay Target: "human serum albumin (Homo sapiens)"
  Parameter: "HSA Binding"
  Result: "96.2%"
- Compound: "COc1ccc(N2C(=O)c3[nH]nc(CC(C)C)c3C2c2ccccc2Cl)cc1 (stereo not drawn)"
  Assay Target: "human serum albumin (Homo sapiens)"
  Parameter: "HSA Binding"
  Result: "97.8%"
- Compound: "CC(C)Cc1n[nH]c2c1C(c1ccccc1Cl)N(c1ccc(N(C)C)cc1)C2=O (stereo not drawn)"
  Assay Target: "human serum albumin (Homo sapiens)"
  Parameter: "HSA Binding"
  Result: "96.7%"

// each compound listed below needs its HSA Binding
1. CC(C)Cc1n[nH]c2c1C(c1ccc(F)cc1)N(c1cccnc1)C2=O (stereo not drawn)
2. COc1ccc(N2C(=O)c3[nH]nc(CC(C)C)c3C2c2ccc(F)cc2)cc1F (stereo not drawn)
3. COc1cc(F)ccc1C1c2c(CC(C)C)n[nH]c2C(=O)N1c1ccc(Br)cc1 (stereo not drawn)
4. COc1ccc(N2C(=O)c3[nH]nc(CC(C)C)c3C2c2ccc(C(F)(F)F)cc2)cc1 (stereo not drawn)
5. Cc1cc(F)ccc1C1c2c(CC(C)C)n[nH]c2C(=O)N1c1ccc2ncnn2c1 (stereo not drawn)
6. COc1ccccc1C1c2c(CC(C)C)n[nH]c2C(=O)N1c1ccc(N(C)C)cc1 (stereo not drawn)
7. COc1ccc(N2C(=O)c3[nH]nc(CC(C)C)c3C2c2ccccc2OC)cn1 (stereo not drawn)

Marked response:
1: 93.4%; 2: 96.9%; 3: 98.5%; 4: 96.9%; 5: 93.2%; 6: 95.7%; 7: 93.9%

----------
Assay: Host THP-1 cell cytotoxicity in the CDIPD high content screen
Assay type: cell-based, human
Conditions: human
Experimental: Assay Conditions B: THP-1 cells (human acute monocytic leukemia cell line—ATCC TIB202) were grown in RPMI supplemented with 10% Fetal Bovine Serum (FBS) and 50 μM 2-mercaptoethanol at 37° C. in 5% CO2. THP-1 were seeded in microwell plates at 5×10^5 cells/mL density and treated with 0.1 μM phorbol myristate acetate (PMA, Sigma) at 37° C. for 48 h for differentiation into adherent, non-dividing macrophages. […]
Parameter: CC50 at 72 h

Provide reported CC50 at 72 h for each item, in the same order as listed.
1. COc1ccc(N2C(=O)c3[nH]nc(CC(C)C)c3C2c2ccc(F)cc2)cc1 (racemic)
2. COc1ccc(N2C(=O)c3[nH]nc(CC(C)C)c3C2c2ccccc2)cc1 (centres unmarked)

Marked response:
["> 20 µM", "> 20 µM"]

----------
tested on: THP-1 cells; assay: Host THP-1 cell cytotoxicity in the CDIPD high content screen; type: cell-based, human; conditions: Homo sapiens, THP-1; 10 μM; footnote b; read-out: THP-1 host cell % growth inhibition at 10 μM
Parameter: inhibition at 10 µM

- Molecule: "COc1ccc(N2C(=O)c3[nH]nc(C)c3C2c2ccc(C)cc2)cc1 (stereo not drawn)"
  Result: "< 10%"
- Molecule: "CC(C)Cc1n[nH]c2c1C(c1ccccc1)N(c1ccccc1)C2=O (stereo not drawn)"
  Result: "< 10%"
- Molecule: "COc1ccc(N2C(=O)c3[nH]nc(C)c3C2c2ccc(F)cc2)cc1 (stereo not drawn)"
  Result: "< 10%"
- Molecule: "CC(C)Cc1n[nH]c2c1C(c1ccc(F)cc1)N(c1ccccc1)C2=O (stereo not drawn)"
  Result: "13%"
- Molecule: "COc1ccc(N2C(=O)c3[nH]nc(-c4ccccc4)c3C2c2ccc(F)cc2)cc1 (stereo not drawn)"
  Result: "30%"
- Molecule: "COc1ccc(N2C(=O)c3[nH]nc(C(C)C)c3C2c2ccc(C)cc2)cc1 (stereo not drawn)"
  Result: "< 10%"
- Molecule: "COc1ccc(N2C(=O)c3[nH]nc(C)c3C2c2ccccc2)cc1 (stereo not drawn)"
  Result: "< 10%"
- Molecule: "COc1ccc(N2C(=O)c3[nH]nc(CC(C)C)c3C2c2ccc(F)cc2)cc1 (stereo not drawn)"
  Result: "13%"
- Molecule: "COc1ccc(N2C(=O)c3[nH]nc(-c4ccccc4)c3C2c2ccccc2)cc1 (stereo not drawn)"
  Result: "< 10%"
- Molecule: "COc1ccc(N2C(=O)c3[nH]nc(CC(C)C)c3C2c2ccc(C)cc2)cc1 (stereo not drawn)"
  Result: "< 10%"

List reported inhibition at 10 µM for each of these molecules:
1. COc1ccc(N2C(=O)c3[nH]nc(C(C)C)c3C2c2ccc(F)cc2)cc1 (stereo not drawn)
2. COc1ccc(N2C(=O)c3[nH]nc(C(C)C)c3C2c2ccccc2)cc1 (stereo not drawn)
3. COc1ccc(N2C(=O)c3[nH]nc(-c4ccccc4)c3C2c2ccc(C)cc2)cc1 (stereo not drawn)
4. COc1ccc(N2C(=O)c3[nH]nc(CC(C)C)c3C2c2ccccc2)cc1 (stereo not drawn)
5. Cc1ccc(C2c3c(CC(C)C)n[nH]c3C(=O)N2c2ccccc2)cc1 (stereo not drawn)

Marked response:
1. < 10%
2. < 10%
3. < 10%
4. 11%
5. 35%
